Items are presented alongside their recorded IC50.
Test system: IL-17A-induced G-CSF production in human normal keratinocyte (NHK)
Assay: NHK Assay: IL-17A-induced G-CSF production in human normal keratinocytes
Type: cell-based
Settings: adult normal human keratinocytes, IL-17A 5 ng/mL, 24 h, simple average if tested more than once
Value Kind: IC50

compound="Cc1c(C(=O)N[C@H](c2cn3ncc(C(NC(=O)CC4CC(F)(F)C4)C4CC4)cc3n2)C2CCC(F)(F)CC2)cnn1CCC(F)(F)F (single isomer, unassigned) [Example 51]" tested_target="IL-17A-induced G-CSF production in human normal keratinocyte (NHK)" value_kind=IC50 reported="~18 µM"
compound="O=C(CC1CC(F)(F)C1)NC(c1cnn2cc([C@@H](NC(=O)c3cnnn3CCC(F)(F)F)C3CCC(F)(F)CC3)nc2c1)C1CC1 (single isomer, unassigned) [Example 73]" tested_target="IL-17A-induced G-CSF production in human normal keratinocyte (NHK)" value_kind=IC50 reported="~15 µM"
compound="CC(C)n1nccc1C(=O)N[C@H](c1cn2ncc(C(CO)NC(=O)CC3CC(F)(F)C3)cc2n1)C1CCC(F)(F)CC1 (single isomer, unassigned) [Example 533]" tested_target="IL-17A-induced G-CSF production in human normal keratinocyte (NHK)" value_kind=IC50 reported="0.15 µM"

====

Target: IL-17A(FLAG-Tagged): IL-17RA(His-Tagged) (Homo sapiens, UniProt Q16552, K93Q)
Sequence (Q16552 with tags, fused parts or gaps K93Q): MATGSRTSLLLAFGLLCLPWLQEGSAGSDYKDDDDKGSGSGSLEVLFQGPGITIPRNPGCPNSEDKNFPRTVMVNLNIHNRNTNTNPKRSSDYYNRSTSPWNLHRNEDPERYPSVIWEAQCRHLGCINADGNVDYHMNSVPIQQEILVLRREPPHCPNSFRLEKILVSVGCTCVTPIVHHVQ
Assay: IL-17A(FLAG-Tagged): IL-17RA(His-Tagged) Binding Disruption Eu-HTRF Assay
Conditions: IL-17A/IL-17RA binding disruption, simple average if tested more than once
pIC50: −log10 of the molar value.
Value Kind: pIC50

molecule="CC(CC(=O)N[C@@H](c1cnn2cc([C@@H](NC(=O)c3conc3C3CC3)C3CCC(F)(F)CC3)nc2c1)C1CC1)C(F)(F)F (single isomer, unassigned) [Example 128]" reported=7.49
molecule="O=C(CC1CC(F)(F)C1)NC(c1cnn2cc([C@@H](NC(=O)c3nonc3C3CC3)C3CCC(F)(F)CC3)nc2c1)C(F)F (single isomer, unassigned)" reported=7.34
molecule="O=C(CCC(F)(F)F)N[C@@H](c1cnn2cc([C@@H](NC(=O)c3cnnn3CC3CC3(F)F)C3CCC(F)(F)CC3)nc2c1)C1CC1 (stereo partly drawn)" reported=6.96

====

Tested on: IL-17A-induced G-CSF production in human normal keratinocyte (NHK)
Test: NHK Assay: IL-17A-induced G-CSF production in human normal keratinocytes
Format: cell-based
Details: adult normal human keratinocytes, IL-17A 5 ng/mL, 24 h, simple average if tested more than once
Protocol: IL-17A acts directly on keratinocytes through binding to dimeric receptor IL-17RA/RC and drives the production of a number of inflammatory mediators known to be elevated in psoriasis lesional tissue. IL-17A small molecule inhibitors that block the IL-17A to interact with IL-17R would inhibit the IL-17A signaling in its targeted cells such as keratinocytes. The compound functional activity is evaluated for its impact on IL-17A-induced G-CSF production in human normal keratinocyte (NHK). […]
Items are presented alongside their recorded IC50.
Value Kind: IC50 (nM)

molecule="O=C(CCC(F)(F)F)NC(c1cnn2cc([C@@H](NC(=O)c3cnn(CCC(F)(F)F)c3)C3CCC(F)(F)CC3)nc2c1)C1CC1 (single isomer, unassigned) [Example 7]" tested_target="IL-17A-induced G-CSF production in human normal keratinocyte (NHK)" value_kind=IC50 measure_unit=nM op=> reported=20000
molecule="CC(C)n1nccc1C(=O)N[C@@H](COC(C)(C)C)c1cn2ncc(C(NC(=O)CCC(F)(F)F)C3CC3)cc2n1 (single isomer, unassigned) [Example 316]" tested_target="IL-17A-induced G-CSF production in human normal keratinocyte (NHK)" value_kind=IC50 measure_unit=nM op== reported=700
molecule="Cc1nonc1C(=O)N[C@H](c1cn2ncc([C@H](NC(=O)CC(C)C(F)F)C3CC3)cc2n1)C1CCC(F)(F)CC1 (single isomer, unassigned) [Example 265]" tested_target="IL-17A-induced G-CSF production in human normal keratinocyte (NHK)" value_kind=IC50 measure_unit=nM op== reported=1100
molecule="[2H]C([2H])([2H])C([2H])([2H])n1nccc1C(=O)N[C@H](c1cn2ncc(C(COC)NC(=O)CC3CC(F)(F)C3)cc2n1)C1CCC(F)(F)CC1 (single isomer, unassigned) [Example 523]" tested_target="IL-17A-induced G-CSF production in human normal keratinocyte (NHK)" value_kind=IC50 measure_unit=nM op== reported=110
molecule="Cc1nonc1C(=O)N[C@H](c1cn2ncc(C(NC(=O)CC3(C(F)(F)F)CC3)C3(C#N)CC3)cc2n1)C1CCC(F)(F)CC1 (single isomer, unassigned) [Example 427]" tested_target="IL-17A-induced G-CSF production in human normal keratinocyte (NHK)" value_kind=IC50 measure_unit=nM op== reported=370

====

Tested on: IL-17A-induced G-CSF production in human normal keratinocyte (NHK)
Experiment: NHK Assay: IL-17A-induced G-CSF production in human normal keratinocytes
Format: cell-based
Settings: adult normal human keratinocytes, IL-17A 5 ng/mL, 24 h, simple average if tested more than once
Value Kind: IC50 (nM)

compound="CC(CC(=O)N[C@@H](c1cnn2cc([C@@H](NC(=O)c3nonc3C3CC3)C3CCC(F)(F)CC3)nc2c1)C1CC1)C(F)(F)F (single isomer, unassigned) [Example 300]" value_kind=IC50 reported=320
compound="CCOCC(NC(=O)CC1CC(F)(F)C1)c1cnn2cc([C@@H](NC(=O)c3ccnn3C(C)C)C3CCC(F)(F)CC3)nc2c1 (single isomer, unassigned) [Example 529]" value_kind=IC50 reported=120
compound="Cc1nonc1C(=O)N[C@H](c1cn2ncc(C(NC(=O)CCC(F)(F)F)C(F)F)cc2n1)C1CCC(F)(F)CC1 (single isomer, unassigned) [Example 515]" value_kind=IC50 reported=140

====

Test system: IL-17A-induced G-CSF production in human normal keratinocyte (NHK)
Experiment: NHK Assay: IL-17A-induced G-CSF production in human normal keratinocytes
Format: cell-based
Settings: adult normal human keratinocytes, IL-17A 5 ng/mL, 24 h, simple average if tested more than once
Value Kind: IC50 (nM)

molecule="N#CC1(C(NC(=O)CC2CC(F)(F)C2)c2cnn3cc([C@@H](NC(=O)c4nonc4C4CC4)C4CCC(F)(F)CC4)nc3c2)CC1 (single isomer, unassigned) [Example 424]" value_kind=IC50 op== reported=40
molecule="O=C(CC(C(F)(F)F)C(F)(F)F)NC(c1cnn2cc([C@@H](NC(=O)c3ccccc3)C3CCC(F)(F)CC3)nc2c1)C1CC1 (single isomer, unassigned) [Example 17]" value_kind=IC50 op== reported=1200
molecule="CC(C)n1nccc1C(=O)N[C@H](c1cn2ncc(C(NC(=O)CC3CC(F)(F)C3)C(C)(C)O)cc2n1)C1CCC(F)(F)CC1 (single isomer, unassigned) [Example 444]" value_kind=IC50 op== reported=11000
molecule="CC(CC(=O)N[C@@H](c1cnn2cc([C@@H](NC(=O)c3conc3OCC(F)F)C3CCC(F)(F)CC3)nc2c1)C1CC1)C(F)(F)F (single isomer, unassigned)" value_kind=IC50 op== reported=840
molecule="Cc1nonc1C(=O)N[C@H](c1cn2ncc(C(NC(=O)CCC(F)(F)F)C(F)F)cc2n1)C1CCC(F)(F)CC1 (single isomer, unassigned) [Example 516]" value_kind=IC50 op=> reported=20000
molecule="O=C(CCC(F)(F)F)NC(c1cnn2cc([C@@H](NC(=O)c3cnn(CCC(F)(F)F)c3)C3CCC(F)(F)CC3)nc2c1)C1CC1 (single isomer, unassigned) [Example 6]" value_kind=IC50 op== reported=570
molecule="CC(CC(=O)N[C@@H](c1cnn2cc([C@@H](NC(=O)c3conc3C3CC3)C3CCC(F)(F)CC3)nc2c1)C1CC1)C(F)(F)F (single isomer, unassigned) [Example 128]" value_kind=IC50 op== reported=96
molecule="CC(C)n1nccc1C(=O)N[C@H](c1cn2ncc(C(CC#N)NC(=O)CC3CC(F)(F)C3)cc2n1)C1CCC(F)(F)CC1 (single isomer, unassigned) [Example 447]" value_kind=IC50 op== reported=1100
molecule="[2H]C([2H])([2H])C([2H])([2H])n1nccc1C(=O)N[C@H](c1cn2ncc(C(COCC)NC(=O)CC3CC(F)(F)C3)cc2n1)C1CCC(F)(F)CC1 (single isomer, unassigned) [Example 531]" value_kind=IC50 op== reported=110
molecule="Cc1nonc1C(=O)N[C@H](c1cn2ncc(C(CC3CCC3)NC(=O)CC3CC(F)(F)C3)cc2n1)C1CCC(F)(F)CC1 (single isomer, unassigned) [Example 439]" value_kind=IC50 op== reported=150

====

Target: IL-17A(FLAG-Tagged): IL-17RA(His-Tagged) (Homo sapiens, UniProt Q16552, K93Q)
Experiment: IL-17A(FLAG-Tagged): IL-17RA(His-Tagged) Binding Disruption Eu-HTRF Assay
Details: IL-17A/IL-17RA binding disruption, simple average if tested more than once
pIC50: −log10 of the molar value.
Items are presented alongside their recorded pIC50.
Value Kind: pIC50

molecule="CC(C)n1nccc1C(=O)N[C@H](c1cn2ncc(C(NC(=O)CC3CC(F)(F)C3)C(F)(F)F)cc2n1)C1CCC(F)(F)CC1 (single isomer, unassigned) [Example 422]" reported=6.59
molecule="O=C(CCC(F)(F)F)N[C@@H](c1cnn2cc([C@@H](NC(=O)[C@@H]3C[C@H]3C(F)(F)F)C3CCC(F)(F)CC3)nc2c1)C1CC1 (relative stereo) [Example 150]" reported=5.89
molecule="Cc1nonc1C(=O)N[C@H](c1cn2ncc(C(NC(=O)CC3CC(F)(F)C3)C3CCC3)cc2n1)C1CCC(F)(F)CC1 (single isomer, unassigned) [Example 493]" reported=7.10
